System: Scirpus juncoides
Assay: Test Example 2: herbicidal effect test by treatment during growing period in paddy rice cultivation (seven days after seeding)
Type: in vivo
Conditions: 120 g/10a active ingredient, assessed 14 days after treatment, dry weight vs untreated area
Experimental: This test was conducted in a double system per one agent solution concentration area, and the herbicidal rates (%) were determined by the following equation (Math. 1) on 14 days after the treatment with the agents. Herbicidal Rate (%)={1-(Average Dry Weight (g) of Plant of Treated Area)/(Average Dry Weight (g) of Plant of Untreated Area)}×100 [Math. 1] Herbicidal Effect Test by Treatment During Growing Period in Paddy Rice Cultivation […]
Provide the reported Herbicidal rate (%) Scirpus juncoides of each item.
One number for each entry, in %.

In the examples that follow, each entry is paired with its recorded Herbicidal rate (%) Scirpus juncoides.
Cc1c(Cc2ccccc2N(S(=O)(=O)C(F)(F)F)S(=O)(=O)C(F)(F)F)c(=O)on1CC1CCCCC1	80
Cc1c(Cc2ccccc2N(C(=O)OC(C)C)S(=O)(=O)C(F)(F)F)c(=O)on1C(C)(C)C	90
COCC(C)n1oc(=O)c(Cc2ccccc2N(C(=O)C(C)C)S(=O)(=O)C(F)(F)F)c1C (stereo not drawn)	90
COCC(C)n1oc(=O)c(Cc2ccccc2N(C(=O)OCC(C)C)S(=O)(=O)C(F)(F)F)c1C (stereo not drawn)	90

Please give Herbicidal rate (%) Scirpus juncoides, item by item, for the list that follows.
1. CCc1c(Cc2ccccc2NS(=O)(=O)C(F)(F)F)c(=O)on1C(C)C
2. CSCCn1oc(=O)c(Cc2ccccc2N(C(=O)OCC(C)C)S(=O)(=O)C(F)(F)F)c1C
3. Cc1c(Cc2ccccc2N(S(=O)(=O)C(F)(F)F)S(=O)(=O)C(F)(F)F)c(=O)on1Cc1ccc(F)c(F)c1
4. COC(=O)N(c1ccccc1Cc1c(C)n(CCSC)oc1=O)S(=O)(=O)C(F)(F)F
5. CSCCn1oc(=O)c(Cc2ccccc2N(C(=O)OC(C)C)S(=O)(=O)C(F)(F)F)c1C
6. Cc1c(Cc2ccccc2N(S(=O)(=O)C(F)(F)F)S(=O)(=O)C(F)(F)F)c(=O)on1Cc1ccc(Cl)cc1
7. C=C(C)Cn1oc(=O)c(Cc2ccccc2NS(=O)(=O)C(F)(F)F)c1C
8. CCN(c1ccccc1Cc1c(C)n(CC(C)C)oc1=O)S(=O)(=O)C(F)(F)F

A.
90
90
40
90
90
90
80
90

Please give Herbicidal rate (%) Scirpus juncoides, item by item, for the list that follows.
1. COc1ccc(Cn2oc(=O)c(Cc3ccccc3N(S(=O)(=O)C(F)(F)F)S(=O)(=O)C(F)(F)F)c2C)cc1
2. C=CCOC(=O)N(c1ccccc1Cc1c(C)n(C(C)c2ccccc2)oc1=O)S(=O)(=O)C(F)(F)F (stereo not drawn)

A.
90
90

Q. Recorded Herbicidal rate (%) Scirpus juncoides for "Cc1c(Cc2ccccc2N(S(=O)(=O)C(F)(F)F)S(=O)(=O)C(F)(F)F)c(=O)on1C1CCCCC1" , please?
A. 80

----------
Test system: Chenopodium album
Assay: Test Example 3: herbicidal effect test by treatment of dry field farming soil (one day after seeding)
Type: in vivo
Conditions: 120 g/10a active ingredient, evaluated 14 days after treatment
measurement-type: herbicidal rate, Chenopodium album

In the examples that follow, each entry is paired with its recorded herbicidal rate, Chenopodium album.
CCC(C)Cn1oc(=O)c(Cc2ccccc2N(C(=O)OCCOC)S(=O)(=O)C(F)(F)F)c1C (centres unmarked) [Compound 1-733]	60%
CCC(CC)n1oc(=O)c(Cc2ccccc2NS(=O)(=O)C(F)(F)F)c1C [Compound 1-103]	100%
Cc1c(Cc2ccccc2NS(=O)(=O)C(F)(F)F)c(=O)on1CC1CCCO1 (centres unmarked) [Compound 1-230]	60%

Please give herbicidal rate, Chenopodium album, item by item, for the list that follows.
1. Cc1c(Cc2ccccc2NS(=O)(=O)C(F)(F)F)c(=O)on1S(=O)(=O)C(C)C [Compound 1-251]
2. COCC(C)n1oc(=O)c(Cc2ccccc2N(C(=O)C(C)C)S(=O)(=O)C(F)(F)F)c1C (centres unmarked) [Compound 1-335]
3. C=CC(C)n1oc(=O)c(Cc2ccccc2N(S(=O)(=O)C(F)(F)F)S(=O)(=O)C(F)(F)F)c1C (centres unmarked) [Compound 1-986]
4. C=C(C)Cn1oc(=O)c(Cc2ccccc2NS(=O)(=O)C(F)(F)F)c1C [Compound 1-137]
5. CCC(C)n1oc(=O)c(Cc2ccccc2N(C(=O)c2ccccc2)S(=O)(=O)C(F)(F)F)c1C (centres unmarked) [Compound 1-474]

A.
1. 80%
2. 90%
3. 60%
4. 40%
5. 90%
